# System: S. aureus strain ATCC 13709 (methicillin-susceptible)
# Measurement Protocol: Murine model for lethal bacteremic peritonitis
# Assay type: in vivo, female Swiss-Webster mice
# Study Conditions: Staphylococcus aureus, ATCC13709; Dose 1.25 mg/kg, SC, 72 h; read-out: Survivors (converted)
Counter-ions that a name gives are not always drawn.

>  <Compound>
Nc1nc(/C(=N/O)C(=O)N[C@@H]2C(=O)N3C(C(=O)O)=C(Sc4ccncc4CSCC(N)CO)CS[C@H]23)c(Cl)s1 (stereo partly drawn) [Cmpd 56, trifluoroacetic acid salt]

>  <responders at 1.25 mg/kg, %>
30

$$$$
>  <Compound>
NCCSCc1cnccc1SC1=C(C(=O)O)N2C(=O)[C@@H](NC(=O)/C(=N\OCCF)c3nc(N)sc3Cl)[C@H]2SC1.O=C(O)C(F)(F)F [Cmpd 33, trifluoroacetic acid salt]

>  <responders at 1.25 mg/kg, %>
50

$$$$
>  <Compound>
NCC(O)CSCc1cnccc1SC1=C(C(=O)O)N2C(=O)[C@@H](NC(=O)/C(=N\O)c3nc(N)sc3Cl)[C@H]2SC1 (stereo partly drawn) [Cmpd 32, trifluoroacetic acid salt]

>  <responders at 1.25 mg/kg, %>
50

$$$$
